Numbers sourced from ChEMBL document CHEMBL1201862.

- System: SR
- assay: NCI tumour cell line growth inhibition, 48 h
Active and inactive are the calls of the source. Cut-off read from the data, not from the text of the source: active = GI50 up to about 1.1 µM and inactive = higher.
Possible outcomes: 1.0 for active, 0.0 for inactive

INSERT INTO assay_data (compound, assigned_class) VALUES
  ('CSc1nc2c(c(=O)n1C)N=C(c1ccccc1)[C@H](C(CC(=O)c1ccccc1)c1ccccc1)C(c1ccccc1)N2 (stereo not given in full)', 0.0),
  ('CC(N)(/C=C/c1ccccc1)C(=O)O (stereo not given)', 0.0),
  ('COC(=O)C1=C(c2ccc(Cl)cc2)C(O)NC(NN)=N1 (stereo not given)', 0.0),
  ('O=c1c2ccccc2nc(-c2ccccc2)n1NC(=S)Nc1cccc(Cl)c1', 0.0),
  ('COC(=O)c1c(C(=O)OC)c2ccccn2c1-c1cc(OC)c(Br)c(=O)o1', 0.0),
  ('NC(=O)NC(=O)c1ccc(NC(=O)CBr)cc1', 1.0),
  ('C/C1=C/C[C@@H](/C(C)=C/c2csc(C)n2)OC(=O)C[C@H](O)C(C)(C)C(=O)[C@H](C)[C@@H](O)[C@@H](C)CCC1', 1.0),
  ('Cc1c(-c2ccccc2)c(C#N)c2nnc(C(N)=O)c(N)n12', 0.0),
  ('N#Cc1c(O)nc2nn3c4ccc5ccccc5c4nnc3c2c1-c1ccc(Cl)cc1', 1.0),
  ('CC(=O)OC1[C@H]2c3cc4c(cc3CN3CCC(C[C@@H]1OC(C)=O)C23)OCO4 (stereo not given in full)', 0.0);

###

- System: SW-620
- assay: NCI tumour cell line growth inhibition, 48 h
Calls of active or inactive are those of the source. No stated cut-off is given here; in the data, active = GI50 up to about 1.1 µM and inactive = higher.
Possible outcomes: active, inactive

INSERT INTO assay_data (molecule, assigned_class) VALUES
  ('Cc1cc(S(=O)(=O)Nc2nc(N)nc(N(C)C)n2)c(SCC(=O)O)cc1Cl', 'inactive'),
  ('COc1cc(Cc2cc(OC)c(OC)c(OC)c2)ccc1O', 'inactive'),
  ('C/C=C/COc1cc(NC(=S)c2ccoc2C)ccc1OC', 'inactive'),
  ('Cc1cc(C)nc(NS(=O)(=O)c2ccc(NC(=O)c3cccc4c(Nc5ccc(S(N)(=O)=O)cc5)c5ccccc5nc34)cc2)n1', 'inactive'),
  ('CC(C)(O)/C1=C/C=C/CCCCCCCCCC1', 'inactive'),
  ('Cc1cc(-c2no[n+]([O-])c2-c2cc(C)sc2S(C)(=O)=O)c(S(C)(=O)=O)s1', 'inactive'),
  ('C[C@@H]1CCC2[C@@H](C)[C@H](O[C@H]3O[C@@H]4O[C@@]5(C)CCC6[C@H](C)CCC([C@H]3C)[C@]64OO5)O[C@@H]3O[C@@]4(C)CCC1[C@@]23OO4 (stereo not given in full)', 'active'),
  ('CCCCCC/C=C/C#CCCCCCCCC(=O)O', 'inactive'),
  ('CSC(Cc1ccc2c(c1)Sc1ccccc1O2)=[N+]1CCOCC1', 'inactive'),
  ('COC1(Cc2ccccc2)C(=O)c2ccccc2N1C(C)=O (stereo not given)', 'inactive');

###

- Tested on: SF-295
- assay: NCI tumour cell line growth inhibition, 48 h
Active and inactive are the calls of the source. Rule as the data show it: active = GI50 up to about 1.1 µM and inactive = higher.
Below: a set of entries, each annotated with reported GI50.
reported_property: GI50

INSERT INTO assay_data (compound, test_value) VALUES
  ('N=C(/C=C/c1ccc(-c2cn3cc(/C=C/C(=N)N4CCCC4)ccc3n2)cc1)N1CCCC1', '> 100 µM (inactive)'),
  ('CCCCCCCC1(c2ccc(N)cc2)CCC(=O)NC1=O (stereo not given)', '30.4 µM (inactive)'),
  ('O=C1/C(=C/c2ccc(Br)s2)NC(=S)N1CN1CCCCC1', '30.5 µM (inactive)'),
  ('CC1=NN(c2nc(N)nc(CS(C)(=O)=O)n2)C(C)(C)C1', '> 100 µM (inactive)'),
  ('C=C(C)COC1CCCCO1 (stereo not given)', '> 100 µM (inactive)');
